- ASSAY PROCEDURE: mitochondrial membrane potential change in A549 cells, profiling panel, cell-based, JC-1 fluorescence, basal, 24 h, 100 nL (AID 1138);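 note: A549 lung adenocarcinoma cells under basal conditions with no added stimulus; test concentration not given here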
- CONDITION PARAMETERS: higher = more signal
QUANTITY NAME: z-score
Output spec: single numeric token, no unit.

Worked set:
COCCn1c(C(=O)N2CCCC2)cc2c1C[C@H]1CN(C(=O)c3ccccc3)[C@@](Cc3ccccc3)(C(=O)OC)[C@@H]21    0.109
C=C(/C(=C/C[C@H](OC(=O)c1ccncc1)c1ccccc1OCCO)c1cc(C(=O)OC)ccc1OC)C(C)C    -0.032
COC(=O)C1=CC(CCCO)=CC(c2ccc(CN3CCCC3)cc2)N(Cc2sc3ccccc3c2Cl)C=C1C(=O)OC (stereo unspecified)    4.12
Cc1ccc(S[C@]2(C(=O)NCC(F)(F)F)CC(=O)N(C3CCCCC3)[C@@H]2c2ccc(CO)cc2)cc1    2.02
COCCOC(=O)N1C(=O)[C@@]2(c3cc(C#CC4(O)CCCCCC4)ccc31)[C@H](C(=O)NC[C@H](O)c1ccccc1)[C@H]1C(=O)O[C@H](c3ccccc3)[C@H](c3ccccc3)N1[C@@H]2c1ccc(O)cc1    0.139

Returns the measured z-score for the input compound. Input: [N-]=[N+]=Nc1ccccc1[C@@H]1OC(c2ccc(OCCCO)cc2)=N[C@]1(Cc1ccccc1)C(N)=O
1.86
